measurement_target: CCR2 (Homo sapiens)
Construct: endogenous in cells; host or cells: THP-1 (human monocytic cell line)
Sequence (P41597 1-360 isoform P41597-2): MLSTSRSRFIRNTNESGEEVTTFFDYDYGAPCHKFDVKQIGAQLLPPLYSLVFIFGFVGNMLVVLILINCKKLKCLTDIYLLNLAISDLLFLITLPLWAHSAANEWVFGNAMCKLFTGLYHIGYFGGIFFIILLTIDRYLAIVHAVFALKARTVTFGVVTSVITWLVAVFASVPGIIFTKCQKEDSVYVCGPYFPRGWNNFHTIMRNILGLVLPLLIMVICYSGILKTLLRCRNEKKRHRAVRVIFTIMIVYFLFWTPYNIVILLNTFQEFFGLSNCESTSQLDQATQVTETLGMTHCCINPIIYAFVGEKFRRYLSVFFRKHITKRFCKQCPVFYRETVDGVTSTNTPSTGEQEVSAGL
assay_info: Inhibition of MCP-1-induced intracellular calcium increase in THP-1 cells (Fura-2)
Format: cell-based
test_parameters: human monocytic cell line THP-1, stimulated with MCP-1 (10 ng/ml), intracellular calcium level
pIC50: −log10 of the molar value.
Here, each record is paired with measured pIC50 data.

Please review the following examples before continuing.
{"molecule": "Cc1nnc2n(CCCN3CCCC(c4c[nH]c5ccccc45)C3)c(=O)c3ccccc3n12 (centres unmarked)", "pIC50": 4.32}
{"molecule": "Cc1nnc2n(CCCN3CCN(Cc4ccccc4-c4ccccc4)CC3)c(=O)c3ccccc3n12", "pIC50": "< 3.80"}
{"molecule": "CCCc1nnc2n(CCCN3CCN(C(c4ccccc4)c4ccccc4)CC3)c(=O)c3ccccc3n12", "pIC50": "< 3.80"}
{"molecule": "Cc1nnc2n(CCCN3CCN(C(c4ccccc4)c4ccccc4)CC3)c(=O)c3cc(Cl)ccc3n12", "pIC50": "< 3.80"}

Item: Cc1nnc2n(CCCN3CCN(C(c4ccccc4)c4ccccc4)CC3)c(=O)c3ccccc3n12 | pIC50: < 3.80
